Each recorded value in this set is attributed to ChEMBL document CHEMBL3507680.

Assay: Human HepG2 cell viability assay in 384 well format
Assay type: toxicity, cell-based
Set-up: dose 125 nL, time 70.5 hour; concentration not given beside the values
Conditions: HepG2 cells, read-out: Inhibition
Form field: cytotoxicity at 70.5 h (one value per entry).

- COMPOUND: "CC(=O)NCC(=O)N1CCC(c2cncc(Oc3cccnc3)n2)CC1"
  cytotoxicity at 70.5 h / %: -9.15
- COMPOUND: "Cc1ccccc1N1CCCN(C(=O)c2cn(C)c3ccccc23)CC1"
  cytotoxicity at 70.5 h / %: -8.98
- COMPOUND: "Cc1cnc(C(=O)N2CC(=O)N(c3ccccc3Cl)CC2C)cn1 (stereo not drawn)"
  cytotoxicity at 70.5 h / %: -6.52
- COMPOUND: "COc1ccc(N(c2ccc(C)cc2)c2ccc(C(=O)O)s2)cc1"
  cytotoxicity at 70.5 h / %: -0.995
- COMPOUND: "OCC1CCCCN1Cc1cc(O)c2cccc(F)c2n1 (stereo not drawn)"
  cytotoxicity at 70.5 h / %: 20.1
- COMPOUND: "O=C(Cn1ccc(=O)cc1)N1C[C@H]2CC[C@@H]1CN(c1ncccn1)C2"
  cytotoxicity at 70.5 h / %: -8.59
- COMPOUND: "CCCNCc1ccc(-c2ccnc3[nH]ccc23)cc1"
  cytotoxicity at 70.5 h / %: 29.1
- COMPOUND: "Cc1n[nH]c(C2CN(C(=O)c3ccc(=O)n(C)c3)CCO2)n1 (stereo not drawn)"
  cytotoxicity at 70.5 h / %: 25.4
- COMPOUND: "c1csc(CN2CCO[C@H]3[C@H](OCCN4CCCC4)CC[C@@H]32)n1"
  cytotoxicity at 70.5 h / %: -11.1
- COMPOUND: "Cc1nc(N2CCCC2)nc2c1CCN(C(=O)c1ccoc1C)CC2"
  cytotoxicity at 70.5 h / %: 1.32
- COMPOUND: "Cc1noc(CCCC(=O)NC(C)c2ccc(Cl)s2)n1 (stereo not drawn)"
  cytotoxicity at 70.5 h / %: -7.88
- COMPOUND: "CC(C)CC(=O)N[C@H](C)c1c(-c2ccc(Cl)cc2)noc1C(=O)O"
  cytotoxicity at 70.5 h / %: -7.33
- COMPOUND: "CCOc1ncccc1CNC(=O)c1csc(Br)c1"
  cytotoxicity at 70.5 h / %: -8.48
- COMPOUND: "CCC(=O)N1CCC(n2cc(C(C)(C)O)nn2)CC1"
  cytotoxicity at 70.5 h / %: -6.93
- COMPOUND: "CCO[C@H]1CC[C@H]2[C@@H]1OCCN2C(=O)COc1ccccc1"
  cytotoxicity at 70.5 h / %: 27.1
- COMPOUND: "CO[C@H]1CN(Cc2ccc(F)cc2)CC[C@@]12CCCO2"
  cytotoxicity at 70.5 h / %: 6.89
- COMPOUND: "Cc1ccc(NC(=O)CNc2ccccc2C(N)=O)c(C)c1"
  cytotoxicity at 70.5 h / %: 2.06
- COMPOUND: "c1ncn(CC2CN(Cc3ccc4c(c3)OCCO4)CCO2)n1 (stereo not drawn)"
  cytotoxicity at 70.5 h / %: -0.441
- COMPOUND: "CN1CCC(Cc2nc(-c3cnccn3)n(Cc3ccccc3)n2)CC1"
  cytotoxicity at 70.5 h / %: -4.63
- COMPOUND: "COCCC(=O)NCCn1nc(C2CCNC2)c2cccnc21 (stereo not drawn)"
  cytotoxicity at 70.5 h / %: 14.1
- COMPOUND: "O=C(C1=COCCO1)N1CC(Oc2nc3c(C(F)(F)F)cccc3s2)C1"
  cytotoxicity at 70.5 h / %: 10.3
- COMPOUND: "Cn1cc(NC(=O)Cc2ccccc2Br)cc1C(N)=O"
  cytotoxicity at 70.5 h / %: -2.69
- COMPOUND: "CO[C@H]1CN(C(C)C)C[C@@H]1NC(=O)c1cc(-c2ccccc2O)n[nH]1"
  cytotoxicity at 70.5 h / %: -1.03
